- Target: P-gp (Cricetulus griseus, UniProt P21448)
- Construct: endogenous in cells; parental AUXB1)
- Sequence (P21448 whole entry): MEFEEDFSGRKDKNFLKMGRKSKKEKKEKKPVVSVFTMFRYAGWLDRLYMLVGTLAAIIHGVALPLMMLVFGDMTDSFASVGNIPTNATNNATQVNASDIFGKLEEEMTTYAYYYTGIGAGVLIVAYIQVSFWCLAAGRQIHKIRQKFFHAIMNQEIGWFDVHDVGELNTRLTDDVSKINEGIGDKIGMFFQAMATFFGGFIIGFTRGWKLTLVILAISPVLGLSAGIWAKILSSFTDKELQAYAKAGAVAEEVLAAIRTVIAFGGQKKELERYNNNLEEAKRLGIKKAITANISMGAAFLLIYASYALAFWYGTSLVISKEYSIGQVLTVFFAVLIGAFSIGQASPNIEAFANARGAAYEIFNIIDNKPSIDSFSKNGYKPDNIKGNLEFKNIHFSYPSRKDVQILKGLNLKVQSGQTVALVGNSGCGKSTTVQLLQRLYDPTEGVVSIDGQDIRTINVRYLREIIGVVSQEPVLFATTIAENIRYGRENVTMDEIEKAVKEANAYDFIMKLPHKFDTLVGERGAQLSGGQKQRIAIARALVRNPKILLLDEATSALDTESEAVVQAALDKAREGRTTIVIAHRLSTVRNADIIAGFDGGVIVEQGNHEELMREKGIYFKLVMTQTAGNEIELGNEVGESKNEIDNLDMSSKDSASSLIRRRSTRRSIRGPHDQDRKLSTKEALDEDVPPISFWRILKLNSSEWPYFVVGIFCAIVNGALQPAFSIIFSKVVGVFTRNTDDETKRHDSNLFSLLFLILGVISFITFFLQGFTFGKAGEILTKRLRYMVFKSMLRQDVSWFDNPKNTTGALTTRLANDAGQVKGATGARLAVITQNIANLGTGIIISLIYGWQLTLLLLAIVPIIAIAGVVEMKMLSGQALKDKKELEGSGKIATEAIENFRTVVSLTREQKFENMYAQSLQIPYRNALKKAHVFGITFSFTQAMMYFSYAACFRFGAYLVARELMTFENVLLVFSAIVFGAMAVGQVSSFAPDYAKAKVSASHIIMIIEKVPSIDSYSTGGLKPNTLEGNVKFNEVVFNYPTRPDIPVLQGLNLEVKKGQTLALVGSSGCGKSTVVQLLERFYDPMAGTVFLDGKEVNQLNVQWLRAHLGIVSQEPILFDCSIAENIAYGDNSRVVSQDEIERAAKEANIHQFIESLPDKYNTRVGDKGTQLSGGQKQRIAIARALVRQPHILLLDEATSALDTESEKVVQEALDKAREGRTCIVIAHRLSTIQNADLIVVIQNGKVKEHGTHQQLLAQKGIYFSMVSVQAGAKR
- Procedure text: Calcein-AM transport assay in P-gp-overexpressing CR1R12 cells
- Study conditions: calcein-AM 0.25 µM, room temperature, read-out: IC50 inhibition of calcein-AM export
- Description: It has commonly been used in fluorescence-based transport assays for P-gp in whole-cell systems (Al-Shawi & Senior, 1993[▶]). Chinese hamster ovary CR1R12 cells were cultured in the presence of 5 µg ml^−1 colchicine to maintain P-gp overexpression. […]
pIC50: −log10 of the molar value.
Each record here notes measured pIC50.
Readout: pIC50

>>> reported("O=C1N[C@@H](Cc2ccccc2)c2nc(c[se]2)C(=O)N[C@@H](Cc2ccccc2)c2nc(c[se]2)C(=O)N[C@@H](Cc2ccccc2)c2nc1c[se]2")
4.62
>>> reported("CC(C)C[C@@H]1NC(=O)c2c[se]c(n2)[C@H](CC(C)C)NC(=O)c2c[se]c(n2)[C@H](CC(C)C)NC(=O)c2c[se]c1n2")
5.27
>>> reported("CC(C)[C@@H]1NC(=O)c2c[se]c(n2)[C@H](C(C)C)NC(=O)c2c[se]c(n2)[C@H](C(C)C)NC(=O)c2c[se]c1n2")
5.77
>>> reported("C[C@@H]1NC(=O)c2c[se]c(n2)[C@H](C)NC(=O)c2c[se]c(n2)[C@H](C)NC(=O)c2c[se]c1n2")
6.85

* * *

- Target: P-gp (Mus musculus)
- Construct: inferred from the Ni-NTA purification
- Sequence (P21447 whole entry): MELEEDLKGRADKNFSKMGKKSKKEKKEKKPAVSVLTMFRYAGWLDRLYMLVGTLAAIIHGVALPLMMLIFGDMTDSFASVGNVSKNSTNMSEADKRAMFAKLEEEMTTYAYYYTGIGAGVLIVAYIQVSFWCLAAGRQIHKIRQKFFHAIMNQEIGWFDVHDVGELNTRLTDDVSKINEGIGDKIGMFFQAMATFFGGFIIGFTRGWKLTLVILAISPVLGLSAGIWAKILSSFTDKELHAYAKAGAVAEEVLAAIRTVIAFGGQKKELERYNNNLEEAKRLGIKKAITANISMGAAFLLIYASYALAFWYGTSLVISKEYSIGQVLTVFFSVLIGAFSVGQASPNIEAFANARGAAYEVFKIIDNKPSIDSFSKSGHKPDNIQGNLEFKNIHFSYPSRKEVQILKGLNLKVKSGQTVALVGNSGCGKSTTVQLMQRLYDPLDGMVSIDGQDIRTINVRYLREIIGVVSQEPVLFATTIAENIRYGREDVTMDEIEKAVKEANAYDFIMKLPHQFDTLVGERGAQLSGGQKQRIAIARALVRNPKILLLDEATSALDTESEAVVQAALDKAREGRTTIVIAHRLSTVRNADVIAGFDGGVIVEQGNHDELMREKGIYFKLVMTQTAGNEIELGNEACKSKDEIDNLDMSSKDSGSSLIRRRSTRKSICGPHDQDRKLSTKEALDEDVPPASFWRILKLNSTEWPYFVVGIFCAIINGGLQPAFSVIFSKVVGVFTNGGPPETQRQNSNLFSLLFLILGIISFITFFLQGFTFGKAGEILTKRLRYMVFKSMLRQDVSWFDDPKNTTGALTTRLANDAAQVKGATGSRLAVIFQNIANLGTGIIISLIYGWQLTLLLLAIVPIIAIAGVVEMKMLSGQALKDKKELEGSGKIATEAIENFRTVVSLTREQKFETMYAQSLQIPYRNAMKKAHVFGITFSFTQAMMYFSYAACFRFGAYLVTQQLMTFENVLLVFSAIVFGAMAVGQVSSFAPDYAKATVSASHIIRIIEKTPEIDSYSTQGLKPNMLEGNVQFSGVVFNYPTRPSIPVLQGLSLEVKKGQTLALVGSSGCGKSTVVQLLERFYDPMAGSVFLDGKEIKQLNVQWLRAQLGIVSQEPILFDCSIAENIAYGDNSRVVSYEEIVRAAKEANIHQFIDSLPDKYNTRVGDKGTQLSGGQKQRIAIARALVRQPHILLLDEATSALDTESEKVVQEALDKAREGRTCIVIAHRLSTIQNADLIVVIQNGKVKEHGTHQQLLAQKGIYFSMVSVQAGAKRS
- Procedure text: Stimulation of basal ATPase activity of purified P-gp
- Study conditions: 310 K
pEC50: −log10 of the molar value.
Readout: pEC50

>>> reported("C[C@@H]1NC(=O)c2c[se]c(n2)[C@H](C)NC(=O)c2c[se]c(n2)[C@H](C)NC(=O)c2c[se]c1n2")
6.04

Cited source for all entries: paper PMC4356375
